Tested on: TR146 cells
Assay: In vitro permeation, buccal model
Type: in vitro ADME, human
Conditions: CS-loaded OFs
Marks after values point to notes of the source that are not given here.
assay_readout: Quantification of permeated compounds

1) COc1cc(C=O)ccc1O; 0.44 ± 0.05^a mg/g film
2) O=C(O)c1cccc(O)c1 [3-Hydroxybenzoic acid]; 0.36 ± 0.03^a mg/g film
3) COC(=O)c1cc(O)c(O)c(O)c1 [Methyl gallate]; 0.37 ± 0.03^a mg/g film
4) O=c1c(O[C@@H]2O[C@H](CO)[C@H](O)[C@H](O)[C@H]2O)c(-c2ccc(O)c(O)c2)oc2cc(O)cc(O)c12 [Quercetin 3-O-galactoside]; 0.36 ± 0.01^a mg/g film
5) COc1cc(CC(=O)O)ccc1O; 0.41 ± 0.01^a mg/g film
6) Oc1cc(O)c2c(c1)O[C@H](c1ccc(O)c(O)c1)[C@H](O)C2 [Epicatechin]; 0.36 ± 0.02^a mg/g film
7) O[C@H]1[C@H](O)[C@@H](O)[C@H](O)[C@@H](O)[C@H]1O; 0.42 ± 0.01^a mg/g film
8) O=C(O)c1ccc(O)c(O)c1; 0.41 ± 0.02^a mg/g film
9) O=C(O)CCC(=O)O; 0.82 ± 0.01^a mg/g film
10) O=C(O)C[C@H](C(=O)O)[C@@H](O)C(=O)O; 306.36 ± 13.65^b mg/g film
11) O=C1CC[C@@H](C(=O)O)N1; 28.93 ± 1.88^a mg/g film
12) COc1cc(-c2oc3cc(O)cc(O)c3c(=O)c2O)ccc1O; 0.38 ± 0.01^a mg/g film

---

Test system: TR146 cells
Test: In vitro permeation, buccal model
Format: in vitro ADME, human
Settings: from CS extract, 45 min
Marks after values point to notes of the source that are not given here.
Permeation (%) by entry:
assay_readout: Permeation (%)

1. O=C(O)C[C@H](C(=O)O)[C@@H](O)C(=O)O; 0.15 ± 0.01^a %
2. O=C(O)CCC(=O)O; 16.09 ± 1.85^a %
3. COc1cc(-c2oc3cc(O)cc(O)c3c(=O)c2O)ccc1O; 98.36 ± 3.74^a %
4. O=C1CC[C@@H](C(=O)O)N1; 18.22 ± 1.41^b %
5. O=C(O)c1ccc(O)c(O)c1; 42.03 ± 0.79^b %
6. COc1cc(CC(=O)O)ccc1O; 92.13 ± 1.08^b %
7. O[C@H]1[C@H](O)[C@@H](O)[C@H](O)[C@@H](O)[C@H]1O; 12.98 ± 0.01^a %
8. COc1cc(C=O)ccc1O; 28.35 ± 0.83^b %
9. O=C(O)c1cccc(O)c1 [3-Hydroxybenzoic acid]; 14.09 ± 0.01^a %
10. Oc1cc(O)c2c(c1)O[C@H](c1ccc(O)c(O)c1)[C@H](O)C2 [Epicatechin]; 97.35 ± 1.74^a %

---

Assay: Ex vivo permeation, Franz cells
Format: in vitro ADME, porcine
Conditions: from CS extract, 15 min
Marks after values point to notes of the source that are not given here.
Permeation (%) by entry:
assay_readout: Permeation (%)

1. O=C(O)C[C@H](C(=O)O)[C@@H](O)C(=O)O [Isocitric acid]; 15.13 ± 0.29^a %
2. O=C(O)c1ccc(O)c(O)c1 [Protocatechuic acid]; 19.05 ± 1.63^a %
3. N[C@@H](Cc1ccccc1)C(=O)O [L-Phenylalanine]; 8.67 ± 0.03^a %
4. O=C(O)c1cccc(O)c1 [3-Hydroxybenzoic acid]; 5.91 ± 0.06^a %

---

Permeation (%) by entry:
Tested on: TR146 cells
Assay: In vitro permeation, buccal model
Assay type: in vitro ADME, human
Details: from CS extract, 15 min
Marks after values point to notes of the source that are not given here.
assay_readout: Permeation (%)

1) O=C(O)c1ccc(O)c(O)c1; 39.32 ± 0.96^b %
2) O=C(O)CCC(=O)O; 20.51 ± 1.62^b %
3) Oc1cc(O)c2c(c1)O[C@H](c1ccc(O)c(O)c1)[C@H](O)C2 [Epicatechin]; 97.57 ± 1.07^a %
4) COc1cc(CC(=O)O)ccc1O; 93.51 ± 2.52^b %
5) COc1cc(C=O)ccc1O; 8.10 ± 0.02^a %
6) O=C(O)c1cccc(O)c1 [3-Hydroxybenzoic acid]; 13.57 ± 0.05^a %
7) O[C@H]1[C@H](O)[C@@H](O)[C@H](O)[C@@H](O)[C@H]1O; 39.51 ± 0.87^a^,^b %
